# experimental.target: Gal(b1-3)[GlcNAc(b1-6)]GalNAc
# assay.protocol: glycan array binding signal (z-score within array); higher = stronger binding
# experimental.setup: glycan notation: IUPAC condensed, linker removed
Many of the other results were omitted from the sample, so the strongest signals are more common in it than they were.
Assign glycan array binding signal (z-score) to each entry below.
// return a plain number; no unit text

stdin: # return recorded glycan array binding signal (z-score) for entry TAL6-4LysM (Trichoderma atroviride) (protein) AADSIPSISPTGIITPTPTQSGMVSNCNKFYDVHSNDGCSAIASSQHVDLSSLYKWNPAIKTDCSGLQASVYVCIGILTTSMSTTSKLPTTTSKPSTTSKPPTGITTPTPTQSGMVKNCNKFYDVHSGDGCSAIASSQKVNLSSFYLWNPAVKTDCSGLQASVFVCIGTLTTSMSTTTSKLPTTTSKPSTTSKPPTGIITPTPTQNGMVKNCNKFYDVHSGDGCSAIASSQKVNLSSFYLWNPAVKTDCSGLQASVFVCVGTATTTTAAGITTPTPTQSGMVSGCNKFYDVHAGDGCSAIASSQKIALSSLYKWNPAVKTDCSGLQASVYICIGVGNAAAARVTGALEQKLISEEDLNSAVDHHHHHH
stdout: 2.39

stdin: # return recorded glycan array binding signal (z-score) for entry AT5G01260(PC)(40) (Arabidopsis thaliana), Q9LFB0 (protein) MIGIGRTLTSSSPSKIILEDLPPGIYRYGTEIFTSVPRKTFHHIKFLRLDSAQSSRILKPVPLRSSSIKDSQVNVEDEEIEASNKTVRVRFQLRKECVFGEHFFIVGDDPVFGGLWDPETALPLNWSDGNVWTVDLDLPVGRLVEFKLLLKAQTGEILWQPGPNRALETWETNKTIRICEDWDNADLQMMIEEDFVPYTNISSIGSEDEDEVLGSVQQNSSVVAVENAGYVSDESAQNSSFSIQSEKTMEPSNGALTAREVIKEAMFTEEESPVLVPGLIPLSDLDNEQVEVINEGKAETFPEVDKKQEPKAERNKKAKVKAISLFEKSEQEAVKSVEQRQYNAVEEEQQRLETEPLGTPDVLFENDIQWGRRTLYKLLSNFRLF
stdout: 0.411

stdin: # return recorded glycan array binding signal (z-score) for entry Clrb (Mus musculus) (protein) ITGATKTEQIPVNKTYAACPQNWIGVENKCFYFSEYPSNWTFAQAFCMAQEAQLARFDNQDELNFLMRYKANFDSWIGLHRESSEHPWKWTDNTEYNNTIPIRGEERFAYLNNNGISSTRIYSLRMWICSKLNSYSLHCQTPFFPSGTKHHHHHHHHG
stdout: -0.186
